Hey, just so you know, these numbers are from paper PMC5627750.

# test protocol: in vivo
# measurement context: male, Sprague-Dawley, rat, iv, 10 mg
attribute measured: AUC(0-inf) (ng·h/mL)
Give a bare numeral; the unit ng·h/mL is implied.

Using the record for COc1cc2c(c(OC)c1OC)-c1c(cc3c(c1OC)OCO3)CC(C)C(C)C2 (stereo not shown) , report its AUC(0-inf).
13700

###

# test protocol: in vivo
# measurement context: male, Sprague-Dawley, rat, iv, 10 mg
attribute measured: AUC(0-t) (ng·h/mL)
# number only, unit ng·h/mL dropped from output

Give its AUC(0-t) value. Item: COc1cc2c(c(OC)c1OC)-c1c(cc3c(c1OC)OCO3)CC(C)C(C)C2 (stereo not shown)
12400
